Please go through the items and note down their Bliss excess.
test system: RPMI-8402 (T-Lymphoblastic Leukemia); assay: Bliss excess, mean over the matrix (fraction); higher = more synergy

These solved cases illustrate the format of a correct answer.
# molecule, Bliss excess
data = [
    ("Cc1cc2ncnn2cc1Nc1ncc2c(n1)n(C1CCOCC1)c(=O)n2C [AZD7648] + CCN(CCO)CCCOc1ccc2c(Nc3cc(CC(=O)Nc4cccc(F)c4)[nH]n3)ncnc2c1 [AZD2811] (first compound max 10 µM, 7x7, partner max 1 µM)", -0.0443),
    ("CN(C)CCCOc1ccc(-c2ccc3ncc4c(c3c2)n(C2CCOCC2)c(=O)n4C)cn1 [AZD0156] + C[C@@H]1COCCN1C2=NC(=NC(=C2)C3(CC3)[S@](=N)(=O)C)C4=C5C=CNC5=NC=C4 [AZD6738] (first compound max 1 µM, 7x7, partner max 10 µM)", 0.0028),
    ("CC(=O)c1c(C)c2cnc(Nc3ccc(N4CCNCC4)cn3)nc2n(C2CCCC2)c1=O [Palbociclib] + Cc1c2c(nn1C)CSCc1cc(n(C)n1)CSc1cc(c3ccccc3c1)OCCCc1c(C(=O)O)n(C)c3c-2c(Cl)ccc13 [AZD5991] (first compound max 10 µM, 7x7, partner max 1 µM)", 0.0046),
]

So the reported Bliss excess for COc1cc2ncnc(Nc3ccc(F)c(Cl)c3)c2cc1OCCCN1CCOCC1 [Gefitinib] + CC(C)n1c(=O)n(C)c2cnc3cc(F)c(-c4ccc(OCCCN5CCCCC5)nc4)cc3c21 [AZD1390] (first compound max 10 µM, 7x7, partner max 0.3 µM) , on RPMI-8402 (T-Lymphoblastic Leukemia), turned out to be -0.0801

====

test system: OVKATE (Ovarian Carcinoma); experiment: Bliss excess, mean over the matrix (fraction); higher = more synergy
Please go through the items and note down their Bliss excess.
Answers are plain numbers.

These solved cases illustrate the format of a correct answer.
# molecule, Bliss excess
measured = [
    ("CN(CCO)CC[C@H](CSc1ccccc1)Nc1ccc(S(=O)(=O)NC(=O)c2ccc(N3CCC([C@@H](O)c4ccccc4-c4ccc(Cl)cc4)CC3)cc2)cc1S(=O)(=O)C(F)(F)F [AZD4320] + C[C@@H]1COCCN1C2=NC(=NC(=C2)C3(CC3)[S@](=N)(=O)C)C4=C5C=CNC5=NC=C4 [AZD6738] (first compound max 1 µM, 7x7, partner max 10 µM)", -0.0581),
    ("COc1cccc(OCCCN)c1-c1cc(Nc2cnc(C#N)cn2)n[nH]1 [Prexasertib] + C=CCn1c(=O)c2cnc(Nc3ccc(N4CCN(C)CC4)cc3)nc2n1-c1cccc(C(C)(C)O)n1 [AZD1775] (first compound max 1 µM, partner max 1 µM)", -0.0665),
]

Each of the following entries comes with a recorded value; kindly state Bliss excess for each.
1. CC1(C)CCC(CN2CCN(c3ccc(C(=O)NS(=O)(=O)c4ccc(NCC5CCOCC5)c([N+](=O)[O-])c4)c(Oc4cnc5[nH]ccc5c4)c3)CC2)=C(c2ccc(Cl)cc2)C1 [Venetoclax] + CCN(CCO)CCCOc1ccc2c(Nc3cc(CC(=O)Nc4cccc(F)c4)[nH]n3)ncnc2c1 [AZD2811] (first compound max 1 µM, 7x7, partner max 1 µM)
2. COc1cccc2c1C(=O)c1c(O)c3c(c(O)c1C2=O)C[C@@](O)(C(=O)CO)C[C@@H]3O[C@H]1C[C@H](N)[C@H](O)[C@H](C)O1 [Doxorubicin] + Cc1cc2ncnn2cc1Nc1ncc2c(n1)n(C1CCOCC1)c(=O)n2C [AZD7648] (first compound max 1 µM, 7x7, partner max 10 µM)

1: -0.0661; 2: -0.0594

Each of the following entries comes with a recorded value; kindly state Bliss excess for each.
1. CN(CCO)CC[C@H](CSc1ccccc1)Nc1ccc(S(=O)(=O)NC(=O)c2ccc(N3CCC([C@@H](O)c4ccccc4-c4ccc(Cl)cc4)CC3)cc2)cc1S(=O)(=O)C(F)(F)F [AZD4320] + C=CCn1c(=O)c2cnc(Nc3ccc(N4CCN(C)CC4)cc3)nc2n1-c1cccc(C(C)(C)O)n1 [AZD1775] (first compound max 1 µM, partner max 1 µM)
2. C[C@@H]1COCCN1c1cc(C2([S@](C)(=N)=O)CC2)nc(-c2ccnc3[nH]ccc23)n1 [AZD6738] + O=C(c1cc(Cc2n[nH]c(=O)c3ccccc23)ccc1F)N1CCN(C(=O)C2CC2)CC1 [Olaparib] (first compound max 10 µM, 7x7, partner max 10 µM)

0.0271
-0.0115

====

tested on: MRK-nu-1 (Breast Carcinoma); assay: Bliss excess, mean over the matrix (fraction); higher = more synergy
Rule: Bliss excess under -0.03 gives n, otherwise y.

Worked examples, 2 molecules total:
# molecule, qualitative_label
records = [
    ("CS(=O)(=O)CCNCc1ccc(-c2ccc3ncnc(Nc4ccc(OCc5cccc(F)c5)c(Cl)c4)c3c2)o1 [Lapatinib] + Cn1cnc2c(F)c(Nc3ccc(Br)cc3Cl)c(C(=O)NOCCO)cc21 [Selumetinib] (first compound max 10 µM, 7x7, partner max 10 µM)", "y"),
    ("CC1(C)CCC(CN2CCN(c3ccc(C(=O)NS(=O)(=O)c4ccc(NCC5CCOCC5)c([N+](=O)[O-])c4)c(Oc4cnc5[nH]ccc5c4)c3)CC2)=C(c2ccc(Cl)cc2)C1 [Venetoclax] + C=CCn1c(=O)c2cnc(Nc3ccc(N4CCN(C)CC4)cc3)nc2n1-c1cccc(C(C)(C)O)n1 [AZD1775] (first compound max 1 µM, partner max 1 µM)", "n"),
]

We now examine a further molecule.
For this molecule, is measured Bliss excess -0.03 or higher? COc1cccc(OCCCN)c1-c1cc(Nc2cnc(C#N)cn2)n[nH]1 [Prexasertib] + O=C(c1cc(Cc2n[nH]c(=O)c3ccccc23)ccc1F)N1CCN(C(=O)C2CC2)CC1 [Olaparib] (first compound max 1 µM, 7x7, partner max 10 µM)
n

====

Please go through the items and note down their Bliss excess.
test system: NCI-H1048 (Small Cell Lung Carcinoma); test: Bliss excess, mean over the matrix (fraction); higher = more synergy
Give bare numbers.

These solved cases illustrate the format of a correct answer.
# molecule, target_entity, Bliss excess
data = [
    ("COc1cccc(OCCCN)c1-c1cc(Nc2cnc(C#N)cn2)n[nH]1 [Prexasertib] + Cc1cc2ncnn2cc1Nc1ncc2c(n1)n(C1CCOCC1)c(=O)n2C [AZD7648] (first compound max 1 µM, 7x7, partner max 10 µM)", "NCI-H1048 (Small Cell Lung Carcinoma)", -0.0275),
    ("NC1(C(=O)N[C@@H](CCO)c2ccc(Cl)cc2)CCN(c2ncnc3[nH]ccc23)CC1 [Capivasertib] + C[C@@H]1COCCN1C2=NC(=NC(=C2)C3(CC3)[S@](=N)(=O)C)C4=C5C=CNC5=NC=C4 [AZD6738] (first compound max 10 µM, 7x7, partner max 10 µM)", "NCI-H1048 (Small Cell Lung Carcinoma)", -0.0204),
    ("CC(=O)c1c(C)c2cnc(Nc3ccc(N4CCNCC4)cn3)nc2n(C2CCCC2)c1=O [Palbociclib] + Cc1c2c(nn1C)CSCc1cc(n(C)n1)CSc1cc(c3ccccc3c1)OCCCc1c(C(=O)O)n(C)c3c-2c(Cl)ccc13 [AZD5991] (first compound max 10 µM, 7x7, partner max 1 µM)", "NCI-H1048 (Small Cell Lung Carcinoma)", -0.0904),
]

Now examine the next entry.
For record CN(CCO)CC[C@H](CSc1ccccc1)Nc1ccc(S(=O)(=O)NC(=O)c2ccc(N3CCC([C@@H](O)c4ccccc4-c4ccc(Cl)cc4)CC3)cc2)cc1S(=O)(=O)C(F)(F)F [AZD4320] + C[C@@H]1COCCN1C2=NC(=NC(=C2)C3(CC3)[S@](=N)(=O)C)C4=C5C=CNC5=NC=C4 [AZD6738] (first compound max 1 µM, 7x7, partner max 10 µM) the listed Bliss excess is 0.0634

====

system: NCI-H1048 (Small Cell Lung Carcinoma); assay: combination Emax (second highest fraction inhibited in the dose matrix, 72 h); higher = more inhibition; extreme values may be limits of the assay
Please go through the items and note down their combination Emax.
Numbers only.

# compound, combination Emax
measured = [
    ("CC1(C)CCC(CN2CCN(c3ccc(C(=O)NS(=O)(=O)c4ccc(NCC5CCOCC5)c([N+](=O)[O-])c4)c(Oc4cnc5[nH]ccc5c4)c3)CC2)=C(c2ccc(Cl)cc2)C1 [Venetoclax] + Cn1cnc2c(F)c(Nc3ccc(Br)cc3Cl)c(C(=O)NOCCO)cc21 [Selumetinib] (first compound max 1 µM, 7x7, partner max 3 µM)", 0.153),
]

Now examine the next entry.
For record Cc1c2c(nn1C)CSCc1cc(n(C)n1)CSc1cc(c3ccccc3c1)OCCCc1c(C(=O)O)n(C)c3c-2c(Cl)ccc13 [AZD5991] + C1CN(CCC1(C(=O)N[C@@H](CCO)C2=CC=C(C=C2)Cl)N)C3=NC=NC4=C3C=CN4 [Capivasertib] (first compound max 1 µM, 7x7, partner max 3 µM) the listed combination Emax is 1
